Values compiled from patent US20240400708A1.

pKd reference
- Target Entity: feline FcRn complex (FcRn-α subunit and β-microglobulin), biotin labeled (feline)
- Assay Remarks: SPR, pH 6
Conceptually, pKd converts a concentration in mol/L into minus its log10.

Binder | pKd
feline IgG1a S434G (antibody, part only; not given: Variable domains, not shown: another chain or arm of the molecule) constant: ASTTAPSVFPLAPSCGTTSGATVALACLVLGYFPEPVTVSWNSGALTSGVHTFPAVLQASGLYSLSSMVTVPSSRWLSDTFTCNVAHPPSNTKVDKTVRKTDHPPGPKPCDCPKCPPPEMLGGPSIFIFPPKPKDTLSISRTPEVTCLVVDLGPDDSDVQITWFVDNTQVYTAKTSPREEQFNSTYRVVSVLPILHQDWLKGKEFKCKVNSKSLPSPIERTISKAKGQPHEPQVYVLPPAQEELSRNKVSVTCLIKSFHPPDIAVEWEITGQPEPENNYRTTPPQLDSDGTYFVYSKLSVDRSHWQRGNTYTCSVSHEALHGHHTQKSLTQSPGK | 8.02
feline IgG1a T256Q (antibody, part only; not given: Variable domains, not shown: another chain or arm of the molecule) constant: ASTTAPSVFPLAPSCGTTSGATVALACLVLGYFPEPVTVSWNSGALTSGVHTFPAVLQASGLYSLSSMVTVPSSRWLSDTFTCNVAHPPSNTKVDKTVRKTDHPPGPKPCDCPKCPPPEMLGGPSIFIFPPKPKDTLSISRQPEVTCLVVDLGPDDSDVQITWFVDNTQVYTAKTSPREEQFNSTYRVVSVLPILHQDWLKGKEFKCKVNSKSLPSPIERTISKAKGQPHEPQVYVLPPAQEELSRNKVSVTCLIKSFHPPDIAVEWEITGQPEPENNYRTTPPQLDSDGTYFVYSKLSVDRSHWQRGNTYTCSVSHEALHSHHTQKSLTQSPGK | 7.23
feline IgG1a H436G (antibody, part only; not given: Variable domains, not shown: another chain or arm of the molecule) constant: ASTTAPSVFPLAPSCGTTSGATVALACLVLGYFPEPVTVSWNSGALTSGVHTFPAVLQASGLYSLSSMVTVPSSRWLSDTFTCNVAHPPSNTKVDKTVRKTDHPPGPKPCDCPKCPPPEMLGGPSIFIFPPKPKDTLSISRTPEVTCLVVDLGPDDSDVQITWFVDNTQVYTAKTSPREEQFNSTYRVVSVLPILHQDWLKGKEFKCKVNSKSLPSPIERTISKAKGQPHEPQVYVLPPAQEELSRNKVSVTCLIKSFHPPDIAVEWEITGQPEPENNYRTTPPQLDSDGTYFVYSKLSVDRSHWQRGNTYTCSVSHEALHSHGTQKSLTQSPGK | 7.96
feline IgG1a S428L/S434Y (antibody, part only; not given: Variable domains, not shown: another chain or arm of the molecule; small tags and cut ends) constant: ASTTAPSVFPLAPSCGTTSGATVALACLVLGYFPEPVTVSWNSGALTSGVHTFPAVLQASGLYSLSSMVTVPSSRWLSDTFTCNVAHPPSNTKVDKTVRKTDHPPGPKPCDCPKCPPPEMLGGPSIFIFPPKPKDTLSISRTPEVTCLVVDLGPDDSDVQITWFVDNTQVYTAKTSPREEQFNSTYRVVSVLPILHQDWLKGKEFKCKVNSKSLPSPIERTISKAKGQPHEPQVYVLPPAQEELSRNKVSVTCLIKSFHPPDIAVEWEITGQPEPENNYRTTPPQLDSDGTYFVYSKLSVDRSHWQRGNTYTCSVLHEALHYHHTQKSLTQSPGK | 8.56
feline IgG1a S252Y/S434H (antibody, part only; not given: Variable domains, not shown: another chain or arm of the molecule) constant: ASTTAPSVFPLAPSCGTTSGATVALACLVLGYFPEPVTVSWNSGALTSGVHTFPAVLQASGLYSLSSMVTVPSSRWLSDTFTCNVAHPPSNTKVDKTVRKTDHPPGPKPCDCPKCPPPEMLGGPSIFIFPPKPKDTLYISRTPEVTCLVVDLGPDDSDVQITWFVDNTQVYTAKTSPREEQFNSTYRVVSVLPILHQDWLKGKEFKCKVNSKSLPSPIERTISKAKGQPHEPQVYVLPPAQEELSRNKVSVTCLIKSFHPPDIAVEWEITGQPEPENNYRTTPPQLDSDGTYFVYSKLSVDRSHWQRGNTYTCSVSHEALHHHHTQKSLTQSPGK | 9.11

Reported pKd ( feline IgG1a S254R (antibody, part only; not given: Variable domains, not shown: another chain or arm of the molecule) constant: ASTTAPSVFPLAPSCGTTSGATVALACLVLGYFPEPVTVSWNSGALTSGVHTFPAVLQASGLYSLSSMVTVPSSRWLSDTFTCNVAHPPSNTKVDKTVRKTDHPPGPKPCDCPKCPPPEMLGGPSIFIFPPKPKDTLSIRRTPEVTCLVVDLGPDDSDVQITWFVDNTQVYTAKTSPREEQFNSTYRVVSVLPILHQDWLKGKEFKCKVNSKSLPSPIERTISKAKGQPHEPQVYVLPPAQEELSRNKVSVTCLIKSFHPPDIAVEWEITGQPEPENNYRTTPPQLDSDGTYFVYSKLSVDRSHWQRGNTYTCSVSHEALHSHHTQKSLTQSPGK ) = 7.67

Reported pKd ( feline IgG1a S254N (antibody, part only; not given: Variable domains, not shown: another chain or arm of the molecule) constant: ASTTAPSVFPLAPSCGTTSGATVALACLVLGYFPEPVTVSWNSGALTSGVHTFPAVLQASGLYSLSSMVTVPSSRWLSDTFTCNVAHPPSNTKVDKTVRKTDHPPGPKPCDCPKCPPPEMLGGPSIFIFPPKPKDTLSINRTPEVTCLVVDLGPDDSDVQITWFVDNTQVYTAKTSPREEQFNSTYRVVSVLPILHQDWLKGKEFKCKVNSKSLPSPIERTISKAKGQPHEPQVYVLPPAQEELSRNKVSVTCLIKSFHPPDIAVEWEITGQPEPENNYRTTPPQLDSDGTYFVYSKLSVDRSHWQRGNTYTCSVSHEALHSHHTQKSLTQSPGK ) = 7.59

Reported pKd ( feline IgG1a S428Y/Q311W/D312P (antibody, part only; not given: Variable domains, not shown: another chain or arm of the molecule) constant: ASTTAPSVFPLAPSCGTTSGATVALACLVLGYFPEPVTVSWNSGALTSGVHTFPAVLQASGLYSLSSMVTVPSSRWLSDTFTCNVAHPPSNTKVDKTVRKTDHPPGPKPCDCPKCPPPEMLGGPSIFIFPPKPKDTLSISRTPEVTCLVVDLGPDDSDVQITWFVDNTQVYTAKTSPREEQFNSTYRVVSVLPILHWPWLKGKEFKCKVNSKSLPSPIERTISKAKGQPHEPQVYVLPPAQEELSRNKVSVTCLIKSFHPPDIAVEWEITGQPEPENNYRTTPPQLDSDGTYFVYSKLSVDRSHWQRGNTYTCSVYHEALHSHHTQKSLTQSPGK ) = 7.59
